target: cyclophilin D (Homo sapiens (Human)); assay: Functional peptidyl prolyl isomerase (PPIase) spectrophotometric assay, cyclophilin D; conditions: second value of CypA/D cell; read-out: Ki CypD
Sequence (P30405 30-207, species assumed): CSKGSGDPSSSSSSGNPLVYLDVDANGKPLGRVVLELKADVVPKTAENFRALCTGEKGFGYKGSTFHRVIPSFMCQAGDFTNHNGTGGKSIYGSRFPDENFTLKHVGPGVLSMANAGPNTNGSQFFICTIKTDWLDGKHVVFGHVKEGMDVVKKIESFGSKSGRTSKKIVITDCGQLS
pKi: −log10 of the molar value.

- compound: "C[C@@H]1NC(=O)[C@H](C[C@H]2CCCN(C)C2)OC(=O)C(C)(C)/C=C/c2ccc3ccc(nc3c2)N(C)NC(=O)[C@@H]2CCCN(N2)C1=O"
  pKi: 6.80
- compound: "CNC(=O)c1ccc(CC2OC(=O)C(C)(C)/C=C/c3ccc4ccc(nc4c3)N(C)NC(=O)[C@@H]3CCCN(N3)C(=O)[C@H](C)NC2=O)cc1 (single isomer, unassigned) [Compound (38)]"
  pKi: 6.72
- compound: "CC(C)[C@@H]1OC(=O)C(C)(C)/C=C/c2ccc3ccc(nc3c2)N(C)NC(=O)[C@@H]2CCCN(N2)C(=O)[C@H](CCC(=O)N2CCN(C)CC2)NC1=O"
  pKi: 7.28
- compound: "C[C@@H]1NC(=O)[C@H](CCl)OC(=O)C(C)(C)/C=C/c2ccc3ccc(nc3c2)N(C)NC(=O)[C@@H]2CCCN(N2)C1=O"
  pKi: 7.55
- compound: "CC(C)[C@@H]1OC(=O)C(C)(C)/C=C/c2ccc3ccc(nc3c2)N(C)NC(=O)[C@@H]2CCCN(N2)C(=O)[C@H](CCCCNCc2ccc3ccccc3c2)NC1=O"
  pKi: 8.37
- compound: "CC(C)[C@@H]1OC(=O)C(C)(C)/C=C/c2ccc3ccc(nc3c2)N(C)NC(=O)[C@@H]2CCCN(N2)C(=O)[C@H](CC2CCN(C)CC2)NC1=O"
  pKi: 7.38
- compound: "CC(=O)N1CCC[C@@H](C[C@@H]2OC(=O)C(C)(C)/C=C/c3ccc4ccc(nc4c3)N(C)NC(=O)[C@@H]3CCCN(N3)C(=O)[C@H](C)NC2=O)C1"
  pKi: 6.77
- compound: "C[C@@H]1NC(=O)[C@@H](CC2CCCNC2)OC(=O)C(C)(C)/C=C/c2ccc3ccc(nc3c2)N(C)NC(=O)[C@@H]2CCCN(N2)C1=O (single isomer, unassigned) [Compound (30)]"
  pKi: 6.35
- compound: "CC(C)[C@@H]1OC(=O)C(C)(C)/C=C/c2ccc3ccc(nc3c2)N(C)NC(=O)[C@@H]2CCCN(N2)C(=O)[C@H](Cc2ccccc2)NC1=O"
  pKi: 8.20
- compound: "C[C@@H]1NC(=O)[C@H](CC2CCCNC2)OC(=O)C(C)(C)/C=C/c2ccc3ccc(nc3c2)N(C)NC(=O)[C@@H]2CCCN(N2)C1=O (some centres unmarked)"
  pKi: 7.25
- compound: "C[C@@H]1NC(=O)[C@H](C2CCCC2)CC(=O)C(C)(C)/C=C/c2ccc3ccc(nc3c2)N(C)NC(=O)[C@@H]2CCCN(N2)C1=O"
  pKi: 7.92

====

biological target: cyclophilin D (Homo sapiens (Human)); experiment: Functional peptidyl prolyl isomerase (PPIase) spectrophotometric assay, cyclophilin D; conditions: second value of CypA/D cell; read-out: Ki CypD

- molecule: "CC(C)[C@@H]1OC(=O)C(C)(C)/C=C/c2ccc3ccc(nc3c2)N(C)NC(=O)[C@@H]2CCCN(N2)C(=O)[C@H](C2CC2)NC1=O"
  Ki: "0.022 µM"
- molecule: "CC(C)[C@@H]1OC(=O)C2(/C=C/c3ccc4ccc(nc4c3)N(C)N(C)C(=O)[C@@H]3CCCN(N3)C(=O)[C@H](C)NC1=O)COCOC2"
  Ki: "0.15 µM"
- molecule: "CC(C)[C@@H]1OC(=O)C(C)(C)/C=C/c2ccc3ccc(nc3c2)N(C)NC(=O)[C@@H]2CCCN(N2)C(=O)[C@H](CCC(=O)NCC2CCOCC2)NC1=O"
  Ki: "0.026 µM"
- molecule: "CC(C)[C@@H]1NC(=O)C(C)(C)/C=C/c2ccc3ccc(nc3c2)N(C)NC(=O)[C@@H]2CCCN(N2)C(=O)[C@H](C)NC1=O"
  Ki: "0.027 µM"
- molecule: "CC(C)NC(=O)c1ccc(C[C@@H]2OC(=O)C(C)(C)/C=C/c3ccc4ccc(nc4c3)N(C)NC(=O)[C@@H]3CCCN(N3)C(=O)[C@H](C)NC2=O)cc1"
  Ki: "0.021 µM"
- molecule: "CC(C)[C@H]1OC(=O)C/C=C/c2ccc3ccc(nc3c2)N(C)NC(=O)[C@@H]2CCCN(N2)C(=O)[C@H](C)NC1=O (stereo in doubt)"
  Ki: "0.054 µM"
- molecule: "CC(C)C(=O)N1CCC2(/C=C/c3ccc4ccc(nc4c3)N(C)NC(=O)[C@@H]3CCCN(N3)C(=O)[C@H](C)NC(=O)[C@H](C(C)C)OC2=O)CC1"
  Ki: "0.0099 µM"
- molecule: "CC(C)[C@@H]1OC(=O)C(C)(C)/C=C/c2ccc3ccc(nc3c2)N(C)NC(=O)[C@@H]2CCCN(N2)C(=O)[C@H](CCC(=O)NCc2cnn(C)c2)NC1=O"
  Ki: "0.0099 µM"
- molecule: "CC(C)[C@@H]1OC(=O)C(C)(C)/C=C/c2ccc3ccc(nc3c2)N(C)NC(=O)[C@@H]2CCCN(N2)C(=O)[C@H](CCC(=O)O)NC1=O"
  Ki: "0.0096 µM"
- molecule: "C[C@@H]1NC(=O)[C@H](CCC(N)=O)OC(=O)C(C)(C)/C=C/c2ccc3ccc(nc3c2)N(C)NC(=O)[C@@H]2CCCN(N2)C1=O"
  Ki: "0.7 µM"
- molecule: "COc1ccc(C[C@@H]2OC(=O)C(C)(C)/C=C/c3ccc4ccc(nc4c3)N(C)NC(=O)[C@@H]3CCCN(N3)C(=O)[C@H](C)NC2=O)cc1"
  Ki: "0.0095 µM"
